assayed-system: BTK C481S (Homo sapiens (Human), UniProt Q06187, C481S)
Sequence (Q06187 whole entry C481S): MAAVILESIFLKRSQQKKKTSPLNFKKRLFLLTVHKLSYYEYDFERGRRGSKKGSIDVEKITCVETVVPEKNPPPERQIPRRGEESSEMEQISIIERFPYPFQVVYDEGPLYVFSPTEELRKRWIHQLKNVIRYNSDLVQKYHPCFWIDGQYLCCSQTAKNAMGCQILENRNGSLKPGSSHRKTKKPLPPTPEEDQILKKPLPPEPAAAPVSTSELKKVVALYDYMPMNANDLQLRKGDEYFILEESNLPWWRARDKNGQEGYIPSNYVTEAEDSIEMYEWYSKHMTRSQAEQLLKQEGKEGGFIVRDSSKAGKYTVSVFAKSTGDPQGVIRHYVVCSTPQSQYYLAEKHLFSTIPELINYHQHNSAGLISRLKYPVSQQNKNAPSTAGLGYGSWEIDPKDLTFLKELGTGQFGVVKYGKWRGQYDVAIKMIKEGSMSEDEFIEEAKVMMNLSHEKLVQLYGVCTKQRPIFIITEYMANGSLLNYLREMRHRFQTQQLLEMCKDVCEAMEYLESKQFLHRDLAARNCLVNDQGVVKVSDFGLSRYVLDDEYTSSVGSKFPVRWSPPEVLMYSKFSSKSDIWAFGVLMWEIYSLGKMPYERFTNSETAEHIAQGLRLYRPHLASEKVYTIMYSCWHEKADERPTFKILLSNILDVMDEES
measurement-description: Binding kinetics measurements (Surface Plasmon Resonance) on BTK C481S
measurement-parameters: target residence time for BTK C481S, SPR
Measured Tau (h) BTK C418S (Act) values are reported for all entries that follow.
Respond numerically; units are h and should not be typed.

INSERT INTO results (molecule, measure, units, reported_value) VALUES
  ('C[C@H]1CC(=O)N[C@@H]2CCCC(C2)n2nc(-c3ccc(C(=O)Nc4cc(C(F)(F)F)ccn4)cc3)c3c(N)ncc(c32)/C=C/CCN1 [Example 150]', 'Tau (h) BTK C418S (Act)', 'h', 1.51);

Ask | Fill in reported Tau (h) BTK C418S (Act) for this entry: NC(=O)[C@H]1CCN(c2ncnc(N)c2F)C[C@@H]1N1CCC[C@@H](Nc2cc(Cl)cc(C(F)(F)F)c2)C1=O [vecabrutinib, reference compound]
Reply | 0.12

Ask | For the molecule N#Cc1ccnc(NC(=O)c2ccc(-c3nn4c5c(cnc(N)c35)/C=C/CCCCCC(=O)N[C@@H]3CCC[C@@H]4C3)cc2)c1 [Example 163] , give its reported Tau (h) BTK C418S (Act).
Reply | 3.51
